Test system: Escherichia coli TOP10
Experiment: shrunken log2 fold change of peptide-encoding DNA abundance (4.5 h post-induction vs induction); higher = less antimicrobial activity (less host growth inhibition)
Settings: time post-induction: 4.5 h; library: site-saturation at positions 5, 18, 19, 20
Parameter threshold = 0.03. Response is 1 when shrunken log2 fold change meets or exceeds it, else -1.

# count of solved cases: 10
Residue Codes	Target System	Class Assignment
RRIRKRPPRLPRPRPRPDRMPRP	Escherichia coli TOP10	1
RRIRIRPPRLPRPRPRPPWVPRP	Escherichia coli TOP10	1
RRIRVRPPRLPRPRPRPQMTPRP	Escherichia coli TOP10	-1
RRIRARPPRLPRPRPRPQKHPRP	Escherichia coli TOP10	1
RRIRPRPPRLPRPRPRPLDKPRP	Escherichia coli TOP10	-1
RRIRRRPPRLPRPRPRPQMVPRP	Escherichia coli TOP10	-1
RRIRWRPPRLPRPRPRPWCKPRP	Escherichia coli TOP10	-1
RRIRHRPPRLPRPRPRPNHFPRP	Escherichia coli TOP10	-1
RRIRRRPPRLPRPRPRPSRDPRP	Escherichia coli TOP10	1
RRIRGRPPRLPRPRPRPEDYPRP	Escherichia coli TOP10	1

## Task Textbook exercise: given the entry RRIRTRPPRLPRPRPRPWHMPRP , state whether its shrunken log2 fold change is greater than or equal to 0.03.
## Result -1

## Task Textbook exercise: given the entry RRIRQRPPRLPRPRPRPHNLPRP , state whether its shrunken log2 fold change is greater than or equal to 0.03.
## Result -1

## Task Textbook exercise: given the entry RRIRPRPPRLPRPRPRPQLQPRP , state whether its shrunken log2 fold change is greater than or equal to 0.03.
## Result -1

## Task Textbook exercise: given the entry RRIRRRPPRLPRPRPRPKTDPRP , state whether its shrunken log2 fold change is greater than or equal to 0.03.
## Result 1

## Task Textbook exercise: given the entry RRIRYRPPRLPRPRPRPGNRPRP , state whether its shrunken log2 fold change is greater than or equal to 0.03.
## Result 1

## Task Textbook exercise: given the entry RRIRERPPRLPRPRPRPEFKPRP , state whether its shrunken log2 fold change is greater than or equal to 0.03.
## Result 1

----------
Measured shrunken log2 fold change accompanies every entry in the list below.
System: Escherichia coli TOP10
Assay: shrunken log2 fold change of peptide-encoding DNA abundance (4.5 h post-induction vs induction); higher = less antimicrobial activity (less host growth inhibition)
Conditions: time post-induction: 4.5 h; library: site-saturation at positions 5, 18, 19, 20

Sample answers from the record:
Residue Codes	shrunken log2 fold change
RRIRLRPPRLPRPRPRPLRSPRP	0.474
RRIRNRPPRLPRPRPRPGVVPRP	0.176
RRIRRRPPRLPRPRPRPPKMPRP	0.286
RRIRKRPPRLPRPRPRPTSCPRP	0.174
RRIRERPPRLPRPRPRPLCIPRP	-0.895
RRIRERPPRLPRPRPRPMHQPRP	-0.452
RRIRERPPRLPRPRPRPFYKPRP	0.187

## Task Return shrunken log2 fold change for the following sequence: RRIRIRPPRLPRPRPRPCWYPRP
## Result -0.461

----------
System: Escherichia coli TOP10
Experiment: shrunken log2 fold change of peptide-encoding DNA abundance (4.5 h post-induction vs induction); higher = less antimicrobial activity (less host growth inhibition)
Details: time post-induction: 4.5 h; library: site-saturation at positions 5, 18, 19, 20
Parameter threshold = -0.04. Response is met when shrunken log2 fold change meets or exceeds it, else not met.

Residue Codes	Class Assignment
RRIRLRPPRLPRPRPRPYCNPRP	not met
RRIRCRPPRLPRPRPRPVYKPRP	not met
RRIRQRPPRLPRPRPRPWVHPRP	not met
RRIRSRPPRLPRPRPRPWRIPRP	not met
RRIRKRPPRLPRPRPRPAAFPRP	met
RRIRTRPPRLPRPRPRPNIAPRP	not met

Consider the record given below.
## Task Textbook exercise: given the entry RRIRCRPPRLPRPRPRPCDIPRP , state whether its shrunken log2 fold change is greater than or equal to -0.04.
## Result met

----------
System: Escherichia coli TOP10
Assay: shrunken log2 fold change of peptide-encoding DNA abundance (4.5 h post-induction vs induction); higher = less antimicrobial activity (less host growth inhibition)
Details: time post-induction: 4.5 h; library: site-saturation at positions 5, 18, 19, 20
Parameter threshold = 0.05. Response is 1 (yes) when shrunken log2 fold change meets or exceeds it, else 0 (no).

# count of solved cases: 3
Residue Codes	Class Assignment
RRIRDRPPRLPRPRPRPHMLPRP	0 (no)
RRIRIRPPRLPRPRPRPIDIPRP	0 (no)
RRIRERPPRLPRPRPRPGIKPRP	0 (no)

## Task Textbook exercise: given the entry RRIRVRPPRLPRPRPRPATVPRP , state whether its shrunken log2 fold change is greater than or equal to 0.05.
## Result 0 (no)

## Task Textbook exercise: given the entry RRIRNRPPRLPRPRPRPSLMPRP , state whether its shrunken log2 fold change is greater than or equal to 0.05.
## Result 1 (yes)

----------
Tested on: Escherichia coli TOP10
Experiment: shrunken log2 fold change of peptide-encoding DNA abundance (4.5 h post-induction vs induction); higher = less antimicrobial activity (less host growth inhibition)
Conditions: time post-induction: 4.5 h; library: site-saturation at positions 5, 18, 19, 20
Categorize each record by its shrunken log2 fold change using low end = under -0.2, middle = from -0.2 up to 0.1, high end = 0.1 and over

Residue Codes	Target System	Class Assignment
RRIRARPPRLPRPRPRPYIYPRP	Escherichia coli TOP10	low end
RRIRKRPPRLPRPRPRPKAYPRP	Escherichia coli TOP10	middle
RRIRHRPPRLPRPRPRPKHNPRP	Escherichia coli TOP10	high end
RRIRLRPPRLPRPRPRPLLCPRP	Escherichia coli TOP10	middle

## Task Into which category would you place RRIRDRPPRLPRPRPRPPWQPRP ?
## Result high end

## Task Into which category would you place RRIRWRPPRLPRPRPRPFMEPRP ?
## Result low end

## Task Into which category would you place RRIRCRPPRLPRPRPRPDWCPRP ?
## Result high end

## Task Into which category would you place RRIRRRPPRLPRPRPRPVCVPRP ?
## Result high end

## Task Into which category would you place RRIRCRPPRLPRPRPRPCRWPRP ?
## Result middle

## Task Into which category would you place RRIRWRPPRLPRPRPRPENNPRP ?
## Result middle

## Task Into which category would you place RRIRDRPPRLPRPRPRPPMNPRP ?
## Result low end

## Task Into which category would you place RRIRDRPPRLPRPRPRPIAQPRP ?
## Result middle

## Task Into which category would you place RRIRIRPPRLPRPRPRPNCHPRP ?
## Result low end

## Task Into which category would you place RRIRCRPPRLPRPRPRPWVSPRP ?
## Result low end

----------
Tested on: Escherichia coli TOP10;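 note: peptides expressed intracellularly from a pBAD plasmid library in pooled LB shake-flask culture, induced with 0.3% L-arabinose, DNA abundance read by NGS, three biological replicates, DESeq2 with apeglm shrinkage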
Test: shrunken log2 fold change of peptide-encoding DNA abundance (4.5 h post-induction vs induction); higher = less antimicrobial activity (less host growth inhibition)
Details: time post-induction: 4.5 h; library: site-saturation at positions 5, 18, 19, 20
Parameter threshold = 0.03. Response is Y when shrunken log2 fold change meets or exceeds it, else N.

# count of solved cases: 5
Residue Codes	Class Assignment
RRIRSRPPRLPRPRPRPIRNPRP	N
RRIRIRPPRLPRPRPRPQDRPRP	N
RRIRGRPPRLPRPRPRPPGAPRP	Y
RRIRFRPPRLPRPRPRPQGIPRP	N
RRIRVRPPRLPRPRPRPEQMPRP	Y

## Task Textbook exercise: given the entry RRIRNRPPRLPRPRPRPTTWPRP , state whether its shrunken log2 fold change is greater than or equal to 0.03.
## Result N

## Task Textbook exercise: given the entry RRIRVRPPRLPRPRPRPYYGPRP , state whether its shrunken log2 fold change is greater than or equal to 0.03.
## Result N

## Task Textbook exercise: given the entry RRIRTRPPRLPRPRPRPITHPRP , state whether its shrunken log2 fold change is greater than or equal to 0.03.
## Result N

## Task Textbook exercise: given the entry RRIRWRPPRLPRPRPRPEKEPRP , state whether its shrunken log2 fold change is greater than or equal to 0.03.
## Result N

## Task Textbook exercise: given the entry RRIRSRPPRLPRPRPRPDYTPRP , state whether its shrunken log2 fold change is greater than or equal to 0.03.
## Result N

## Task Textbook exercise: given the entry RRIRWRPPRLPRPRPRPKHDPRP , state whether its shrunken log2 fold change is greater than or equal to 0.03.
## Result Y

## Task Textbook exercise: given the entry RRIRYRPPRLPRPRPRPWTKPRP , state whether its shrunken log2 fold change is greater than or equal to 0.03.
## Result N

## Task Textbook exercise: given the entry RRIRERPPRLPRPRPRPLHLPRP , state whether its shrunken log2 fold change is greater than or equal to 0.03.
## Result N

## Task Textbook exercise: given the entry RRIRYRPPRLPRPRPRPCTHPRP , state whether its shrunken log2 fold change is greater than or equal to 0.03.
## Result N

## Task Textbook exercise: given the entry RRIRMRPPRLPRPRPRPCFKPRP , state whether its shrunken log2 fold change is greater than or equal to 0.03.
## Result Y

Each recorded value in this set is attributed to the supplement of paper PMC9112550.
